meta.source: the supplement of paper PMC10567573

B1: SNAP91 (parent)
chain: FATASAAVPVSTSKPSSDLLDLQP

variants of: B1; experiment: protein stability index of a GFP-peptide fusion (GPS, HEK-293T) (PSI 1-6); higher = more stable; conditions: c terminus: a fixed tail appended;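 also: lentivirally expressed fusions sorted by FACS into six bins by GFP to DsRed ratio, PSI derived from sequencing read proportions per bin multiplied by bin number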
A collection of variants and their measured protein stability index

Memo: `S17I` , reported protein stability index: 2.88

Memo: `P15A` , reported protein stability index: 3.28

Memo: `V8D` , reported protein stability index: 4.64

Memo: `P9N` , reported protein stability index: 3.75

Memo: `T3V` , reported protein stability index: 4.38
